Origin of the recorded values: ChEMBL document CHEMBL1671662

test system: Bifidobacterium dentium; test: Antibacterial activity against Bifidobacterium dentium by CLSI M11-A6 agar dilution method; assay type: functional

# COMPOUND_STRUCTURE_STRING, MIC90
measured = [
    ("CCCCCCCCCC(=O)N[C@@H](Cc1c[nH]c2ccccc12)C(=O)N[C@H](CC(N)=O)C(=O)N[C@@H](CC(=O)O)C(=O)N[C@@H]1C(=O)NCC(=O)N[C@@H](CCCN)C(=O)N[C@@H](CC(=O)O)C(=O)N[C@H](C)C(=O)N[C@@H](CC(=O)O)C(=O)NCC(=O)N[C@H](CO)C(=O)N[C@@H]([C@H](C)CC(=O)O)C(=O)N[C@@H](CC(=O)c2ccccc2N)C(=O)O[C@@H]1C", "32 µg/mL"),
]

* * *

tested on: Peptoniphilus asaccharolyticus; assay: Antibacterial activity against Peptoniphilus asaccharolyticus by CLSI M11-A6 agar dilution method; assay type: functional
Entries and their MIC90

# MOLECULE, READING_QUALIFIER, MIC90, µg/mL
measured = [
    ("CC(=O)NC[C@H]1CN(c2ccc(N3CCOCC3)c(F)c2)C(=O)O1 [LINEZOLID]", "=", 2),
    ("CCCCCCCCCCNCCN[C@@]1(C)C[C@H](O[C@H]2[C@H](Oc3c4cc5cc3Oc3ccc(cc3Cl)[C@@H](O)[C@@H](NC(=O)[C@@H](CC(C)C)NC)C(=O)N[C@@H](CC(N)=O)C(=O)N[C@H]5C(=O)N[C@H]3C(=O)N[C@H](C(=O)N[C@H](C(=O)O)c5cc(O)c(CNCP(=O)(O)O)c(O)c5-c5cc3ccc5O)[C@H](O)c3ccc(c(Cl)c3)O4)O[C@H](CO)[C@@H](O)[C@@H]2O)O[C@@H](C)[C@H]1O [TELAVANCIN]", "=", 0.25),
    ("CCC[C@@H]1C[C@@H](C(=O)N[C@@H]([C@H]2O[C@H](SC)[C@H](O)[C@@H](O)[C@H]2O)[C@H](C)Cl)N(C)C1 [CLINDAMYCIN]", ">", 128),
    ("CCCCCCCCCC(=O)N[C@@H](Cc1c[nH]c2ccccc12)C(=O)N[C@H](CC(N)=O)C(=O)N[C@@H](CC(=O)O)C(=O)N[C@@H]1C(=O)NCC(=O)N[C@@H](CCCN)C(=O)N[C@@H](CC(=O)O)C(=O)N[C@H](C)C(=O)N[C@@H](CC(=O)O)C(=O)NCC(=O)N[C@H](CO)C(=O)N[C@@H]([C@H](C)CC(=O)O)C(=O)N[C@@H](CC(=O)c2ccccc2N)C(=O)O[C@@H]1C", "=", 4),
]

* * *

tested on: Clostridium butyricum; test: Antibacterial activity against Clostridium butyricum by CLSI M11-A6 agar dilution method; assay type: functional
MEASURED_ATTRIBUTE: MIC90

# COMPOUND_STRUCTURE_STRING, RESULT
measured = [
    ("CCC[C@@H]1C[C@@H](C(=O)N[C@@H]([C@H]2O[C@H](SC)[C@H](O)[C@@H](O)[C@H]2O)[C@H](C)Cl)N(C)C1", "4 µg/mL"),
    ("CN[C@H](CC(C)C)C(=O)N[C@H]1C(=O)N[C@@H](CC(N)=O)C(=O)N[C@H]2C(=O)N[C@H]3C(=O)N[C@H](C(=O)N[C@H](C(=O)O)c4cc(O)cc(O)c4-c4cc3ccc4O)[C@H](O)c3ccc(c(Cl)c3)Oc3cc2cc(c3O[C@@H]2O[C@H](CO)[C@@H](O)[C@H](O)[C@H]2O[C@H]2C[C@](C)(N)[C@H](O)[C@H](C)O2)Oc2ccc(cc2Cl)[C@H]1O", "4 µg/mL"),
    ("CCCCCCCCCC(=O)N[C@@H](Cc1c[nH]c2ccccc12)C(=O)N[C@H](CC(N)=O)C(=O)N[C@@H](CC(=O)O)C(=O)N[C@@H]1C(=O)NCC(=O)N[C@@H](CCCN)C(=O)N[C@@H](CC(=O)O)C(=O)N[C@H](C)C(=O)N[C@@H](CC(=O)O)C(=O)NCC(=O)N[C@H](CO)C(=O)N[C@@H]([C@H](C)CC(=O)O)C(=O)N[C@@H](CC(=O)c2ccccc2N)C(=O)O[C@@H]1C", "8 µg/mL"),
    ("CCCCCCCCCCNCCN[C@@]1(C)C[C@H](O[C@H]2[C@H](Oc3c4cc5cc3Oc3ccc(cc3Cl)[C@@H](O)[C@@H](NC(=O)[C@@H](CC(C)C)NC)C(=O)N[C@@H](CC(N)=O)C(=O)N[C@H]5C(=O)N[C@H]3C(=O)N[C@H](C(=O)N[C@H](C(=O)O)c5cc(O)c(CNCP(=O)(O)O)c(O)c5-c5cc3ccc5O)[C@H](O)c3ccc(c(Cl)c3)O4)O[C@H](CO)[C@@H](O)[C@@H]2O)O[C@@H](C)[C@H]1O", "0.25 µg/mL"),
    ("CC(=O)NC[C@H]1CN(c2ccc(N3CCOCC3)c(F)c2)C(=O)O1", "4 µg/mL"),
]

* * *

system: Clostridium disporicum; experiment: Antibacterial activity against Clostridium disporicum by CLSI M11-A6 agar dilution method; format: functional

# COMPOUND, READING_QUALIFIER, MIC50 / µg/mL
records = [
    ("CCCCCCCCCCNCCN[C@@]1(C)C[C@H](O[C@H]2[C@H](Oc3c4cc5cc3Oc3ccc(cc3Cl)[C@@H](O)[C@@H](NC(=O)[C@@H](CC(C)C)NC)C(=O)N[C@@H](CC(N)=O)C(=O)N[C@H]5C(=O)N[C@H]3C(=O)N[C@H](C(=O)N[C@H](C(=O)O)c5cc(O)c(CNCP(=O)(O)O)c(O)c5-c5cc3ccc5O)[C@H](O)c3ccc(c(Cl)c3)O4)O[C@H](CO)[C@@H](O)[C@@H]2O)O[C@@H](C)[C@H]1O [TELAVANCIN]", "≤", 0.12),
    ("CC(=O)NC[C@H]1CN(c2ccc(N3CCOCC3)c(F)c2)C(=O)O1 [LINEZOLID]", "=", 2),
    ("Cc1ncc([N+](=O)[O-])n1CCO [METRONIDAZOLE]", "=", 0.25),
    ("CCCCCCCCCC(=O)N[C@@H](Cc1c[nH]c2ccccc12)C(=O)N[C@H](CC(N)=O)C(=O)N[C@@H](CC(=O)O)C(=O)N[C@@H]1C(=O)NCC(=O)N[C@@H](CCCN)C(=O)N[C@@H](CC(=O)O)C(=O)N[C@H](C)C(=O)N[C@@H](CC(=O)O)C(=O)NCC(=O)N[C@H](CO)C(=O)N[C@@H]([C@H](C)CC(=O)O)C(=O)N[C@@H](CC(=O)c2ccccc2N)C(=O)O[C@@H]1C", "=", 1),
    ("CN[C@H](CC(C)C)C(=O)N[C@H]1C(=O)N[C@@H](CC(N)=O)C(=O)N[C@H]2C(=O)N[C@H]3C(=O)N[C@H](C(=O)N[C@H](C(=O)O)c4cc(O)cc(O)c4-c4cc3ccc4O)[C@H](O)c3ccc(c(Cl)c3)Oc3cc2cc(c3O[C@@H]2O[C@H](CO)[C@@H](O)[C@H](O)[C@H]2O[C@H]2C[C@](C)(N)[C@H](O)[C@H](C)O2)Oc2ccc(cc2Cl)[C@H]1O [VANCOMYCIN]", "=", 1),
]

* * *

Entries and their MIC50
system: Fusobacterium mortiferum; assay: Antibacterial activity against Fusobacterium mortiferum by CLSI M11-A6 agar dilution method; type: functional

# COMPOUND_STRUCTURE_STRING, ASSAY_TARGET, MIC50
data = [
    ("CN[C@H](CC(C)C)C(=O)N[C@H]1C(=O)N[C@@H](CC(N)=O)C(=O)N[C@H]2C(=O)N[C@H]3C(=O)N[C@H](C(=O)N[C@H](C(=O)O)c4cc(O)cc(O)c4-c4cc3ccc4O)[C@H](O)c3ccc(c(Cl)c3)Oc3cc2cc(c3O[C@@H]2O[C@H](CO)[C@@H](O)[C@H](O)[C@H]2O[C@H]2C[C@](C)(N)[C@H](O)[C@H](C)O2)Oc2ccc(cc2Cl)[C@H]1O", "Fusobacterium mortiferum", "> 128 µg/mL"),
    ("CC(=O)NC[C@H]1CN(c2ccc(N3CCOCC3)c(F)c2)C(=O)O1", "Fusobacterium mortiferum", "1 µg/mL"),
    ("CCCCCCCCCC(=O)N[C@@H](Cc1c[nH]c2ccccc12)C(=O)N[C@H](CC(N)=O)C(=O)N[C@@H](CC(=O)O)C(=O)N[C@@H]1C(=O)NCC(=O)N[C@@H](CCCN)C(=O)N[C@@H](CC(=O)O)C(=O)N[C@H](C)C(=O)N[C@@H](CC(=O)O)C(=O)NCC(=O)N[C@H](CO)C(=O)N[C@@H]([C@H](C)CC(=O)O)C(=O)N[C@@H](CC(=O)c2ccccc2N)C(=O)O[C@@H]1C", "Fusobacterium mortiferum", "> 128 µg/mL"),
    ("CCC[C@@H]1C[C@@H](C(=O)N[C@@H]([C@H]2O[C@H](SC)[C@H](O)[C@@H](O)[C@H]2O)[C@H](C)Cl)N(C)C1", "Fusobacterium mortiferum", "1 µg/mL"),
    ("CCCCCCCCCCNCCN[C@@]1(C)C[C@H](O[C@H]2[C@H](Oc3c4cc5cc3Oc3ccc(cc3Cl)[C@@H](O)[C@@H](NC(=O)[C@@H](CC(C)C)NC)C(=O)N[C@@H](CC(N)=O)C(=O)N[C@H]5C(=O)N[C@H]3C(=O)N[C@H](C(=O)N[C@H](C(=O)O)c5cc(O)c(CNCP(=O)(O)O)c(O)c5-c5cc3ccc5O)[C@H](O)c3ccc(c(Cl)c3)O4)O[C@H](CO)[C@@H](O)[C@@H]2O)O[C@@H](C)[C@H]1O", "Fusobacterium mortiferum", "> 64 µg/mL"),
    ("Cc1ncc([N+](=O)[O-])n1CCO", "Fusobacterium mortiferum", "≤ 0.12 µg/mL"),
]
